Cited source for all entries: BindingDB's records for PubMed 29751237

MEASURED ON: Maltase-glucoamylase (Homo sapiens, UniProt O43451)
Sequence (O43451 whole entry): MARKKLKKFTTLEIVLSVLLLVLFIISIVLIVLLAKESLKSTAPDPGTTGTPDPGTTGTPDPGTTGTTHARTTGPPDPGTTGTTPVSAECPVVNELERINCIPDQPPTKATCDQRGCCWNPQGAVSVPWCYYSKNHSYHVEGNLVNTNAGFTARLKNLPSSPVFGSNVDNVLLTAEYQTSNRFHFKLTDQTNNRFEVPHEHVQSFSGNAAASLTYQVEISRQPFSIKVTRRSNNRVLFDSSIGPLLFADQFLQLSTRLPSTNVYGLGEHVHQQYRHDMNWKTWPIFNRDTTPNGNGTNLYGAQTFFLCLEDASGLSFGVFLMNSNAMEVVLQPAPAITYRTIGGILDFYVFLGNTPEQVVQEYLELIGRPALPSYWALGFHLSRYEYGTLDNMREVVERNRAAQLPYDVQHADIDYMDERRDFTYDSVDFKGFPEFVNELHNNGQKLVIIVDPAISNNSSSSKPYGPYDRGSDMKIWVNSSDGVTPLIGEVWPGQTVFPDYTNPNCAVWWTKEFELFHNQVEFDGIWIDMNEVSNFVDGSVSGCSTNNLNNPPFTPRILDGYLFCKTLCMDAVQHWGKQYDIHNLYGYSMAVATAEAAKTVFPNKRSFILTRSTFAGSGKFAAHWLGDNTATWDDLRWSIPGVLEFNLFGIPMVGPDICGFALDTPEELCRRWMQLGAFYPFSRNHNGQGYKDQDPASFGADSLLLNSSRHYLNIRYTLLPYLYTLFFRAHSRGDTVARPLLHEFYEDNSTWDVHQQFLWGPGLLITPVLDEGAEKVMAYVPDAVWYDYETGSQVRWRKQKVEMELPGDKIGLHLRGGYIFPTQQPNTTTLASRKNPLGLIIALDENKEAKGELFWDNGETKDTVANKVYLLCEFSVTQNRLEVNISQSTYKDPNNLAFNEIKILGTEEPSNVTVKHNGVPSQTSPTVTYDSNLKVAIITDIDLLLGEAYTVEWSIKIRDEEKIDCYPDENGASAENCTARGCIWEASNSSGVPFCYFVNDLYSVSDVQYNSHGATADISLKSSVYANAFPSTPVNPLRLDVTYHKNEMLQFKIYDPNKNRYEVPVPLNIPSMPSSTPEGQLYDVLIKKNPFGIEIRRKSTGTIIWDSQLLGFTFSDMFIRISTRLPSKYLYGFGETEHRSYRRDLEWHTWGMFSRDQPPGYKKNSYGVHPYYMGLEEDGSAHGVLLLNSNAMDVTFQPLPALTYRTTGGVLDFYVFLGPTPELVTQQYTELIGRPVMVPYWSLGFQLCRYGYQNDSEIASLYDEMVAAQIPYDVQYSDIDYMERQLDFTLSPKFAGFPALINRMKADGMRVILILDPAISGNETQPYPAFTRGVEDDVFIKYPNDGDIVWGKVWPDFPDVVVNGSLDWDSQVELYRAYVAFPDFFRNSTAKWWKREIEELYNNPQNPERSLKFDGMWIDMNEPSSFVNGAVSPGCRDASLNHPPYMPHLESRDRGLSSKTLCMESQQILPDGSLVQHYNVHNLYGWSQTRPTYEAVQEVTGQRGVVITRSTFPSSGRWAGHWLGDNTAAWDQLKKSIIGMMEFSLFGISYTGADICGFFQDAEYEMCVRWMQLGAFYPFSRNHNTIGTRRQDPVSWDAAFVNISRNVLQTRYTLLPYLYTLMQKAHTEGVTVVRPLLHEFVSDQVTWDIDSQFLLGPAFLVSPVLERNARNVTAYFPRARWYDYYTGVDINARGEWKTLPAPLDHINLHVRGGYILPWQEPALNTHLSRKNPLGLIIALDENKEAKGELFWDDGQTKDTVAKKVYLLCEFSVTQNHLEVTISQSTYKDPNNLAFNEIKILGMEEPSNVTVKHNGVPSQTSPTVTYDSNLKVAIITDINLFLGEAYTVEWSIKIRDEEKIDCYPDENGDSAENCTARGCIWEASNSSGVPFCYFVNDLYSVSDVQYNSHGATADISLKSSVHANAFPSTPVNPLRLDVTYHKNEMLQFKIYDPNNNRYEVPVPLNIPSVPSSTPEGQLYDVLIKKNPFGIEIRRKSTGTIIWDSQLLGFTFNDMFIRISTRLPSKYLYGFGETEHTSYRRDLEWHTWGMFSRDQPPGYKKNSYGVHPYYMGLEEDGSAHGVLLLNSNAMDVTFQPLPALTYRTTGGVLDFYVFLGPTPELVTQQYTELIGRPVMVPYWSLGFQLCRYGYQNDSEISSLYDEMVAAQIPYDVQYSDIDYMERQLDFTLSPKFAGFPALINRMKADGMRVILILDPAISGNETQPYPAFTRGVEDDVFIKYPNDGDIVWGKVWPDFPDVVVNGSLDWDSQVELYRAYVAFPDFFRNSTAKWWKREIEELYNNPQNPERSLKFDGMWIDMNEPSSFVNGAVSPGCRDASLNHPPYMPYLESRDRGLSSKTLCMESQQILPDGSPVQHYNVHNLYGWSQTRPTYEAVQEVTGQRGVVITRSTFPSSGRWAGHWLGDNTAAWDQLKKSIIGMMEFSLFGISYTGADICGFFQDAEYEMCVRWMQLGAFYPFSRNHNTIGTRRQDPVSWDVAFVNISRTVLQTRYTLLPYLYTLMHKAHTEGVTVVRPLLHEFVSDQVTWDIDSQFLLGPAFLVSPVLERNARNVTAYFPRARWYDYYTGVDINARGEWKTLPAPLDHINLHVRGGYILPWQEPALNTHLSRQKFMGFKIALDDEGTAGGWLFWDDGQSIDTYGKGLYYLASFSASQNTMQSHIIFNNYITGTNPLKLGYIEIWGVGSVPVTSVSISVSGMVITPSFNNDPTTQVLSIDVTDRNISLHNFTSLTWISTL
MEASURED ENDPOINT: IC50

CC(C)=CCC/C(C)=C/Cc1c(O)cc(O)c(C(=O)/C=C/c2ccc(O)cc2)c1O = 1080 nM
